Reported Relative Biological Activity (AML 193 proliferation) values for the following binders.
Molecular target: T1, hIL-3 receptor (human, UniProt P26951)
T1 sequence: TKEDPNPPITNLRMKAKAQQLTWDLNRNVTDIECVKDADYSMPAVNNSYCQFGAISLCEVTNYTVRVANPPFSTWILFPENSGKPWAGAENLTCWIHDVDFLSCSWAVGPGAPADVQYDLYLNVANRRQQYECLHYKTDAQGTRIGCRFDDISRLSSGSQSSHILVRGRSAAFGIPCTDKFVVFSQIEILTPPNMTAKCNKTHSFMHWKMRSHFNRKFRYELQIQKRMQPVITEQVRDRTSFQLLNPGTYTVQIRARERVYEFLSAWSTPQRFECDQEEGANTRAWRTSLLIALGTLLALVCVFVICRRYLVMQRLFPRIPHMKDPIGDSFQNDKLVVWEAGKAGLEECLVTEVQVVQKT
Experiment: cell-based or functional assay
TEST_READOUT: Relative Biological Activity (AML 193 proliferation)

BINDER	RESULT
pMON13294 polypeptide (ligand) MANCSIMIDEIIHHLKRPPNPLLDPNNLNSEDMDILMERNLRTPNLLAFVRAVKHLENASGIEAILRNLVPCLPSATAAPSRHPITIKAGDWQEFREKLTFYLVSLEHAQEQQ	3 EC50 (1-133)hIL-3 / EC50 mutant
pMON13467 polypeptide (ligand) MANCSIMIDELIHHLKIPPNPSLDSANLNSEDVSILMERNLRTPNLLAFVRAVKHLENASGIEAILRNLQPCLPSATAAPSRHPIIIKAGDWQEFRLKLQFYLSSLEQAQEQQ	0.16 EC50 (1-133)hIL-3 / EC50 mutant
pMON13424 polypeptide (ligand) MANCSIAIDEIIHHLKRPPNPLLDPNNLNSEDVDILLERNLRTPNLLAFVRAVKHLENASGIEAILRNLQPCLPSATAAPSRHPIIIKAGDWQEFREKLTFYLVTLEQAQEQQ	3 EC50 (1-133)hIL-3 / EC50 mutant
pMON13408 polypeptide (ligand) MANCSIMIDEIIHHLKRPPNPLLDPNNLNSEDMDILIERNLRTPNLLAFVRAVKHLENASGIEAILRNLQPCLPSATAAPSRHPIIIKAGDWQEFREKLTFYLVTLEQAQEQQ	7 EC50 (1-133)hIL-3 / EC50 mutant
